Sourced from ChEMBL document CHEMBL1250461

# Procedure Details: Binding affinity to Bovicola ovis recombinant ecdysone receptor ligand binding domain after 3 hrs by fluorescence polarization assay
Recorded Metric: pIC50
Answers are plain numbers, as −log10 of the molar value.

[
  {
    "Compound": "C=C1C(CCCCCCCC)=C(C#N)C(=O)N1c1c(C)cc(C)cc1C",
    "Val": 4.66
  }
]

Take each entry in turn and give its pIC50.
1. C=C1C(C)=C(C#N)C(=O)N1c1cc(Cl)ccc1O
2. C=C1C(C)=C(C#N)C(=O)N1c1c(C)cc(Cl)cc1Cl
3. C=C1C(C(C)C)=C(C#N)C(=O)N1c1c(C)cc(C)cc1C
4. C=C1C(CC)=C(C#N)C(=O)N1c1cccc(Cl)c1C
5. C=C1C(c2ccccc2)=C(C#N)C(=O)N1c1cc(C)ccc1F

1. 4.03
2. 4.26
3. 4.26
4. 4.82
5. 4.90

====

# Measured Target: Ecdysone receptor (Lucilia cuprina, UniProt O18531)
# Sequence (O18531 whole entry): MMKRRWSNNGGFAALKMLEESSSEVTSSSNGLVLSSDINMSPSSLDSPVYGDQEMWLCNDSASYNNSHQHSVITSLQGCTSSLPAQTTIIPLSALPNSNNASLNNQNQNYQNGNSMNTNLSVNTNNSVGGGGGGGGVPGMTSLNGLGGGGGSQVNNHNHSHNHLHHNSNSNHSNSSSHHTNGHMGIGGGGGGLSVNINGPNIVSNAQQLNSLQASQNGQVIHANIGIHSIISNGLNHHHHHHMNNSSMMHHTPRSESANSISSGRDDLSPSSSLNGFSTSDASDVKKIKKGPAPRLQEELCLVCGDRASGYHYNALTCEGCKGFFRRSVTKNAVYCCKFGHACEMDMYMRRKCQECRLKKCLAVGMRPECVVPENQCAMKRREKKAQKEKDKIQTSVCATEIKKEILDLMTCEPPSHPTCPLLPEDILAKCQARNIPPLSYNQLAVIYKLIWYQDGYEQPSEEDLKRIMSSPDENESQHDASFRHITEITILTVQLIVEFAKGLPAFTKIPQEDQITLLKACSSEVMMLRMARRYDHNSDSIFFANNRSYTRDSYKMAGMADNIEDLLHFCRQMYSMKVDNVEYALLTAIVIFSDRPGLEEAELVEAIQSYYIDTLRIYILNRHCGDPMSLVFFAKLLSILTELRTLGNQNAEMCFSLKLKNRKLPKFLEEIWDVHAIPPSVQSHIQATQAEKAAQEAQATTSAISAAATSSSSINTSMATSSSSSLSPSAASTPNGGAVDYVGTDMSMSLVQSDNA
# Procedure Details: Binding affinity to Lucilia cuprina recombinant ecdysone receptor ligand binding domain after 3 hrs by fluorescence polarization assay
Recorded Metric: IC50

[
  {
    "Molecule": "CC(C)CC[C@@H](O)[C@](C)(O)[C@H]1CC[C@@]2(O)C3=CC(=O)[C@@H]4C[C@@H](O)[C@@H](O)C[C@]4(C)[C@H]3CC[C@]12C",
    "Measured Target": "Ecdysone receptor (Lucilia cuprina, UniProt O18531)",
    "Val": "0.9 µM"
  }
]

Take each entry in turn and give its IC50.
1. C=C1C(C)=C(C#N)C(=O)N1c1cc(Cl)cc(Cl)c1
2. C=C1C(C)=C(C(=O)c2ccccc2)C(=O)N1c1cccc(C(F)(F)F)c1
3. C=C1C(C(C)C)=C(C#N)C(=O)N1c1ccc(Cl)cc1C(C)(C)C
4. C=C1C(CCCC)=C(C#N)C(=O)N1c1c(C)cccc1CC

27.5 µM
17.5 µM
42 µM
33 µM

Take each entry in turn and give its IC50.
1. C=C1C(CC)=C(C#N)C(=O)N1c1cc(Cl)ccc1C(C)(C)C
2. C=C1C(C)=C(C#N)C(=O)N1c1ccccc1C(F)(F)F
3. C=C1C(CCCC)=C(C#N)C(=O)N1c1cc(Cl)ccc1C

["11 µM", "48 µM", "12.5 µM"]

Take each entry in turn and give its IC50.
1. C=C1C(C)=C(C#N)C(=O)N1c1cc(C(C)(C)C)ccc1C(C)(C)C
2. C=C1C(C(C)C)=C(C#N)C(=O)N1c1ccccc1C(C)(C)C
3. CC(C)(O)CC[C@@H](O)[C@](C)(O)[C@H]1CC[C@@]2(O)C3=CC(=O)[C@@H]4C[C@@H](O)[C@@H](O)C[C@]4(C)[C@H]3CC[C@]12C [20-HYDROXYECDYSONE]
4. C=C1C(C(C)C)=C(C#N)C(=O)N1c1c(C)cc(Cl)cc1Cl

1: 6.5 µM; 2: 15 µM; 3: 5.5 µM; 4: 480 µM

Take each entry in turn and give its IC50.
1. C=C1C(c2ccccc2)=C(C#N)C(=O)N1C1CCCCC1
2. C=C1C(CC(C)C)=C(C#N)C(=O)N1c1c(C)cc(C)cc1C

["12.5 µM", "175 µM"]

====

# Procedure Details: Binding affinity to Bovicola ovis recombinant ecdysone receptor ligand binding domain after 3 hrs by fluorescence polarization assay
Recorded Metric: pIC50
One number for each entry, as −log10 of the molar value.

Example entries begin here.
[
  {
    "Compound": "C=C1C(C)=C(C#N)C(=O)N1c1c(C(C)C)cccc1C(C)C",
    "pIC50": 4.68
  },
  {
    "Compound": "C=C1C(C)=C(C(=O)C(C)C)C(=O)N1c1cc(Cl)c(Cl)cc1Cl",
    "pIC50": 4.80
  },
  {
    "Compound": "C=C1C(C)=C(C#N)C(=O)N1Cc1ccccc1Cl",
    "pIC50": 4.43
  }
]

Take each entry in turn and give its pIC50.
1. C=C1C(C(C)C)=C(C#N)C(=O)N1c1ccccc1C(C)(C)C
2. CC(C)(O)CC[C@@H](O)[C@](C)(O)[C@H]1CC[C@@]2(O)C3=CC(=O)[C@@H]4C[C@@H](O)[C@@H](O)C[C@]4(C)[C@H]3CC[C@]12C [20-HYDROXYECDYSONE]
3. C=C1C(CCCC)=C(C#N)C(=O)N1c1ccccc1OC(F)(F)F
4. C=C1C(C)=C(C(C)=O)C(=O)N1c1cc(Cl)c(Cl)cc1Cl
5. C/C=C1\C(C)=C(C#N)C(=O)N1c1c(Cl)cc(Cl)cc1Cl (mixture of isomers)

1. 5.02
2. 4.62
3. 4.82
4. 4.35
5. 4.07

Look at this compound and give its reported pIC50. C=C1C(C(C)C)=C(C#N)C(=O)N1c1c(C)cc(Cl)cc1Cl
4.20

====

Kindly supply the reported LC50 values for the records listed here.
# Procedure Details: Toxicity in Bovicola ovis assessed as mortality after 9 days
# Test Context: 216 h
Numbers only, in µg/mL.

Example entries begin here.
[
  {
    "Compound Structure String": "C=C1C(CCCC)=C(C#N)C(=O)N1c1cccc(Cl)c1C",
    "LC50 [µg/mL]": 175
  },
  {
    "Compound Structure String": "C=C1C(CC)=C(C#N)C(=O)N1c1cc(Cl)ccc1C(C)(C)C",
    "LC50 [µg/mL]": 190
  },
  {
    "Compound Structure String": "C=C1C(C)=C(C#N)C(=O)N1N1CCCCC1",
    "LC50 [µg/mL]": 244
  },
  {
    "Compound Structure String": "C=C1C(C)=C(C#N)C(=O)N1c1ccc(Cl)c(Cl)c1",
    "LC50 [µg/mL]": 167
  },
  {
    "Compound Structure String": "C=C1C(c2ccccc2)=C(C#N)C(=O)N1C1CCCCC1",
    "LC50 [µg/mL]": 130
  },
  {
    "Compound Structure String": "C=C1C(CCC)=C(C#N)C(=O)N1c1cc(Cl)ccc1Cl",
    "LC50 [µg/mL]": 66
  },
  {
    "Compound Structure String": "C=C1C(CC(C)C)=C(C#N)C(=O)N1c1cc(Cl)cc(Cl)c1",
    "LC50 [µg/mL]": 119
  }
]

Moving on to the next molecule.
Look at this molecule and give its reported LC50. C=C1C(CC(C)C)=C(C#N)C(=O)N1c1cc(C(F)(F)F)cc(C(F)(F)F)c1
26

====

# Procedure Details: Binding affinity to Bovicola ovis recombinant ecdysone receptor ligand binding domain after 3 hrs by fluorescence polarization assay
Threshold 20 µM. IC50 below it: Fulfilled. IC50 at it or above: Not fulfilled.

[
  {
    "Compound Structure String": "C=C1C(C)=C(C#N)C(=O)N1c1cccc(C(F)(F)F)c1",
    "Answer Label": "Not fulfilled"
  },
  {
    "Compound Structure String": "C=C1C(C)=C(C#N)C(=O)N1c1ccc2c(c1)OCO2",
    "Answer Label": "Not fulfilled"
  },
  {
    "Compound Structure String": "C=C1C(CCCC)=C(C#N)C(=O)N1c1cccc(Cl)c1C",
    "Answer Label": "Fulfilled"
  },
  {
    "Compound Structure String": "C=C1C(CC(C)C)=C(C#N)C(=O)N1c1cc(Cl)cc(Cl)c1",
    "Answer Label": "Fulfilled"
  },
  {
    "Compound Structure String": "C=C1C(C)=C(C#N)C(=O)N1c1ccc(Cl)c(Cl)c1",
    "Answer Label": "Fulfilled"
  }
]

Decide: IC50 of C=C1C(CCCC)=C(C#N)C(=O)N1c1cc(Cl)ccc1C(C)(C)C strictly below 20 µM?
Fulfilled
